Reference source for all entries: ChEMBL document CHEMBL4296182

- System: Acinetobacter baumannii
- experimental_protocol: Antibacterial activity against Acinetobacter baumannii ATCC 19606 (CO-ADD:GN_034); MIC in CAMBH media using NBS plates, by Resazurin F(560/590)
- Type: functional
- stated_conditions: Concentration 20 uM, ASSAY_TEST Inhibition of Bacterial Growth, detection method Resazurin, Fluorescence (ex560/em590), MEDIA CAMHB, plate type 384well, CORNING #3640, time 18 hr
Binarize Inhibition at -10%; below is Fulfilled, at or above is Not fulfilled.

stdin: Could you please tell me whether Inhibition recorded for `O=C(O)c1cc(O)ccc1/N=N/c1ccccc1` is less than -10%?
stdout: Not fulfilled

stdin: Could you please tell me whether Inhibition recorded for `O=C(Nc1ccc(Cl)cc1)Nc1cccc2nsnc12` is less than -10%?
stdout: Not fulfilled

stdin: Could you please tell me whether Inhibition recorded for `CC(=O)c1cc2c(cc1C)CCCC2(C)C` is less than -10%?
stdout: Fulfilled

stdin: Could you please tell me whether Inhibition recorded for `Cn1ncc2c(Nc3cccc(Cl)c3)nc(Nc3cccc(Cl)c3)nc21` is less than -10%?
stdout: Not fulfilled

stdin: Could you please tell me whether Inhibition recorded for CC1(C)OC2C(CO)OC(n3cnc4c(S)ncnc43)C2O1 (stereo unspecified) is less than -10%?
stdout: Fulfilled

stdin: Could you please tell me whether Inhibition recorded for `N=C(N)Nc1ccc(NC(=N)N)cc1` is less than -10%?
stdout: Not fulfilled

###

For each record, write down the corresponding Inhibition.
- Tested on: Staphylococcus aureus
- experimental_protocol: Antibacterial activity against Staphylococcus aureus MRSA ATCC 43300 (CO-ADD:GP_020); MIC in CAMBH media using NBS plates, by Resazurin F(560/590)
- Assay type: functional
- stated_conditions: Concentration 20 uM, ASSAY_TEST Inhibition of Bacterial Growth, detection method Resazurin, Fluorescence (ex560/em590), MEDIA CAMHB, plate type 384well, CORNING #3640, time 18 hr
Kindly provide the numeric value in % only, without the unit symbol.

stdin: State its Inhibition for this molecule: O=C1c2cccc3cc([N+](=O)[O-])cc(c23)C(=O)N1CCN1CCCC1 [PINAFIDE]
stdout: -1.04

stdin: State its Inhibition for this molecule: `CCOc1ccc(NC(=O)c2cc3ccccc3cc2O)cc1`
stdout: -0.31

stdin: State its Inhibition for this molecule: `O=C(c1ccccc1)c1ccc(-c2ccc(O)cc2)cc1`
stdout: -4.49

stdin: State its Inhibition for this molecule: `CC(=O)Nc1nc(C)c(CCCOc2ccc([N+](=O)[O-])cc2)c(O)n1`
stdout: 4.87

stdin: State its Inhibition for this molecule: `CCn1c2ccccc2nc2cc3c(cc21)c(Cl)c(=O)c1ccccc13`
stdout: 25.73

stdin: State its Inhibition for this molecule: `CCOC(CNCc1cc(C)c2[nH]c3ccccc3c2c1C)OCC`
stdout: 11.65

stdin: State its Inhibition for this molecule: `CC(C)Cc1nnc(N)s1`
stdout: 5.28

stdin: State its Inhibition for this molecule: CSc1ncc2ncn(C3OC(CO)C(O)C3O)c2n1 (stereo not given)
stdout: 5.7

stdin: State its Inhibition for this molecule: `Cc1ccc(C)c(C(=O)CCC(=O)O)c1`
stdout: 9.56

stdin: State its Inhibition for this molecule: COc1ccc(NC2=NC(C)(CO)CS2)cc1 (stereo not given)
stdout: 33.41
